Examples of molecules with documented hemolysis at 1 h, 200 ug/ml follow.
protocol-text: Hemolytic assay (HRBC membrane stabilization, anti-inflammatory activity)
Assay type: cell-based, human
condition: human, human red blood cells, 2% suspension, pH 7.4; Conc. 200 ug/ml, 2% RBC, 1 hour 37°C
Give just the numeric value; % need not be written.

Worked examples, 7 molecules total:
molecule | test-value
CC(=O)CSC1=NC(c2ccc(C#N)cc2)C(C#N)C(=O)N1 (centres unmarked) | 1.8
N#Cc1ccc(C2N=C(Nc3nc4ccccc4s3)NC(=O)C2C#N)cc1 (centres unmarked) | 0.1
N#Cc1ccc(C2N=C3SCC=C(N)N3C(=O)C2C#N)cc1 (centres unmarked) | 0.4
CSC1=NC(c2ccc(C#N)cc2)C(C#N)C(=O)N1 (centres unmarked) | 0.1
N#Cc1ccc(C2N=C3SCC(=O)N3C(=O)C2C#N)cc1 (centres unmarked) | 3.1
N#Cc1ccc(C2N=C(NNc3ccccc3)NC(=O)C2C#N)cc1 (centres unmarked) | 4.3
N#CCSC1=NC(c2ccc(C#N)cc2)C(C#N)C(=O)N1 (centres unmarked) | 0.3

# input for lookup
Task: Query (molecule): N#Cc1ccc(C2NC(=S)NC(=O)C2C#N)cc1 (centres unmarked) ; field requested: hemolysis at 1 h, 200 ug/ml
Output: 9.5

---

protocol-text: Hemolytic assay (HRBC membrane stabilization, anti-inflammatory activity)
Type: cell-based, human
condition: human, human red blood cells, 2% suspension, pH 7.4; Conc. 100 ug/ml, 2% RBC, 1 hour 37°C
Decide using hemolysis at 1 h, 100 ug/ml: a value greater than or equal to 0.2% is 1, a smaller one is -1.

Examples from the recorded data:
compound | label-class
N#CCSC1=NC(c2ccc(C#N)cc2)C(C#N)C(=O)N1 (centres unmarked) [Compound 3] | -1
CC(=O)CSC1=NC(c2ccc(C#N)cc2)C(C#N)C(=O)N1 (centres unmarked) [Compound 4] | 1
N#Cc1ccc(C2NC(=S)NC(=O)C2C#N)cc1 (centres unmarked) [Compound 1] | 1
N#Cc1ccc(C2N=C(Nc3nc4ccccc4s3)NC(=O)C2C#N)cc1 (centres unmarked) [Compound 8] | -1
CSC1=NC(c2ccc(C#N)cc2)C(C#N)C(=O)N1 (centres unmarked) [Compound 2] | -1

Task: Reported hemolysis at 1 h, 100 ug/ml at or above 0.2%? N#Cc1ccc(C2N=C3SCC(=O)N3C(=O)C2C#N)cc1 (centres unmarked) [Compound 6]
Output: 1

Task: Param item: N#Cc1ccc(C2N=C(NNc3ccccc3)NC(=O)C2C#N)cc1 (centres unmarked) [Compound 9]
Output: 1

---

protocol-text: DPPH radical scavenging method (antioxidant activity)
condition: 0.1 mM DPPH in ethanol, 30 minutes, absorbance 517 nm, triplicate
// classify(record): look up IC50ug/ml (DPPH scavenging) in ranges L (below 6 µg/mL), M (6 µg/mL to below 40 µg/mL), H (40 µg/mL or more)

Examples from the recorded data:
compound | label-class
N#Cc1ccc(C2N=C3SCC(=O)N3C(=O)C2C#N)cc1 (stereo not drawn) | H
CC(=O)CSC1=NC(c2ccc(C#N)cc2)C(C#N)C(=O)N1 (stereo not drawn) | M
N#Cc1ccc(C2N=C(NNc3ccccc3)NC(=O)C2C#N)cc1 (stereo not drawn) | H
N#Cc1ccc(C2NC(=S)NC(=O)C2C#N)cc1 (stereo not drawn) | M
CSC1=NC(c2ccc(C#N)cc2)C(C#N)C(=O)N1 (stereo not drawn) | M

Task: In plain terms, what class is O=C1O[C@H]([C@@H](O)CO)C(O)=C1O [Ascorbic acid, reference compound] ?
Output: L

Task: Param item: N#Cc1ccc(C2N=C(Nc3nc4ccccc4s3)NC(=O)C2C#N)cc1 (stereo not drawn)
Output: M

Task: Param item: N#CCSC1=NC(c2ccc(C#N)cc2)C(C#N)C(=O)N1 (stereo not drawn)
Output: M

Task: Param item: N#Cc1ccc(C2N=C3SCC=C(N)N3C(=O)C2C#N)cc1 (stereo not drawn)
Output: L

---

Examples of compounds with documented hemolysis at 1 h, 1000 ug/ml follow.
protocol-text: Hemolytic assay (HRBC membrane stabilization, anti-inflammatory activity)
Assay type: cell-based, human
condition: human, human red blood cells, 2% suspension, pH 7.4; Conc. 1000 ug/ml, 2% RBC, 1 hour 37°C
Description: The hemolysis essay of the synthesized compounds is summarized in Table 3 and Fig 4; the mean absorption rate of the samples, with isotonic solution Ab, and hemolysis % were calculated with a standard deviation. […] The cellular mechanism of action was detected by suppression of myeloperoxidase and granulocyte superoxide formation. […] The hemolytic assay was performed using the method reported in [37, 40, 41]. […] The experiment was carried out in triplicate, and the mean ± SD was calculated. […]
Give just the numeric value; % need not be written.

compound | hemolysis at 1 h, 1000 ug/ml / %
N#Cc1ccc(C2N=C3SCC(=O)N3C(=O)C2C#N)cc1 (stereo not shown) | 14.3
N#Cc1ccc(C2NC(=S)NC(=O)C2C#N)cc1 (stereo not shown) | 13.9
CC(=O)CSC1=NC(c2ccc(C#N)cc2)C(C#N)C(=O)N1 (stereo not shown) | 9.3
N#Cc1ccc(C2N=C(Nc3nc4ccccc4s3)NC(=O)C2C#N)cc1 (stereo not shown) | 3.7
N#Cc1ccc(C2N=C(NNc3ccccc3)NC(=O)C2C#N)cc1 (stereo not shown) | 14.4
CSC1=NC(c2ccc(C#N)cc2)C(C#N)C(=O)N1 (stereo not shown) | 2.2

Task: Query (compound): N#Cc1ccc(C2N=C3SCC=C(N)N3C(=O)C2C#N)cc1 (stereo not shown) ; field requested: hemolysis at 1 h, 1000 ug/ml
Output: 7

---

protocol-text: Hemolytic assay (HRBC membrane stabilization, anti-inflammatory activity)
Format: cell-based, human
condition: human, human red blood cells, 2% suspension, pH 7.4; Conc. 600 ug/ml, 2% RBC, 1 hour 37°C
Description: The hemolysis essay of the synthesized compounds is summarized in Table 3 and Fig 4; the mean absorption rate of the samples, with isotonic solution Ab, and hemolysis % were calculated with a standard deviation. […] The cellular mechanism of action was detected by suppression of myeloperoxidase and granulocyte superoxide formation. […] The hemolytic assay was performed using the method reported in [37, 40, 41]. […] The experiment was carried out in triplicate, and the mean ± SD was calculated. […]
Examples of molecules with documented hemolysis at 1 h, 600 ug/ml follow.
Give just the numeric value; % need not be written.

Worked examples, 7 molecules total:
molecule | hemolysis at 1 h, 600 ug/ml, %
N#Cc1ccc(C2N=C3SCC(=O)N3C(=O)C2C#N)cc1 (centres unmarked) | 4.6
N#Cc1ccc(C2N=C(NNc3ccccc3)NC(=O)C2C#N)cc1 (centres unmarked) | 9
N#Cc1ccc(C2N=C(Nc3nc4ccccc4s3)NC(=O)C2C#N)cc1 (centres unmarked) | 1.3
N#Cc1ccc(C2N=C3SCC=C(N)N3C(=O)C2C#N)cc1 (centres unmarked) | 5.5
N#CCSC1=NC(c2ccc(C#N)cc2)C(C#N)C(=O)N1 (centres unmarked) | 1.2
CC(=O)CSC1=NC(c2ccc(C#N)cc2)C(C#N)C(=O)N1 (centres unmarked) | 5.9
N#Cc1ccc(C2NC(=S)NC(=O)C2C#N)cc1 (centres unmarked) | 12.4

Task: Query (molecule): CSC1=NC(c2ccc(C#N)cc2)C(C#N)C(=O)N1 (centres unmarked) ; field requested: hemolysis at 1 h, 600 ug/ml
Output: 0.3

---

protocol-text: Hemolytic assay (HRBC membrane stabilization, anti-inflammatory activity)
Format: cell-based, human
condition: human, human red blood cells, 2% suspension, pH 7.4; Conc. 400 ug/ml, 2% RBC, 1 hour 37°C
observable: hemolysis at 1 h, 400 ug/ml (%)
Give just the numeric value; % need not be written.

compound | hemolysis at 1 h, 400 ug/ml / %
CSC1=NC(c2ccc(C#N)cc2)C(C#N)C(=O)N1 (centres unmarked) [Compound 2] | 0.1

Task: Query (compound): N#Cc1ccc(C2N=C3SCC=C(N)N3C(=O)C2C#N)cc1 (centres unmarked) [Compound 5] ; field requested: hemolysis at 1 h, 400 ug/ml
Output: 1.4

Task: Param item: N#Cc1ccc(C2N=C(NNc3ccccc3)NC(=O)C2C#N)cc1 (centres unmarked) [Compound 9]
Output: 5

Task: Param item: CC(=O)CSC1=NC(c2ccc(C#N)cc2)C(C#N)C(=O)N1 (centres unmarked) [Compound 4]
Output: 3.6

Task: Param item: N#Cc1ccc(C2N=C(Nc3nc4ccccc4s3)NC(=O)C2C#N)cc1 (centres unmarked) [Compound 8]
Output: 0.9

Task: Param item: N#Cc1ccc(C2N=C3SCC(=O)N3C(=O)C2C#N)cc1 (centres unmarked) [Compound 6]
Output: 4

Task: Param item: N#CCSC1=NC(c2ccc(C#N)cc2)C(C#N)C(=O)N1 (centres unmarked) [Compound 3]
Output: 0.7

Task: Param item: N#Cc1ccc(C2NC(=S)NC(=O)C2C#N)cc1 (centres unmarked) [Compound 1]
Output: 12

Origin of values: paper PMC12121771
